Each recorded value in this set is attributed to the supplement of paper PMC10567573.

test: protein stability index of a GFP-peptide fusion (GPS, HEK-293T) (PSI 1-6); higher = more stable; conditions: treatment: MLN4924 1 uM, 8 h; c terminus: a fixed tail appended;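 further: 24-mer peptide tiles fused after GFP, lentivirally expressed, FACS-sorted into six equal bins by GFP/DsRed ratio, decoded by Illumina sequencing, PSI is the read-weighted mean bin number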
Catalogue of protein stability index values
Output spec: single numeric token, no unit.

QATCNVHKSAFNDWFSGHLNFQIE [FADS1] = 2.48

Please fill in: protein stability index reported for YEFNPDFLEEAHEWNQKRARKAMR [N4BP2L1] = 4.19

Please fill in: protein stability index reported for TLPYPVKIKVRFSFFLQIYLIMIF [HACD3] = 2.84

Please fill in: protein stability index reported for LEGFQAQGHPPSLFPPKAKSNQPK [ATE1] = 5.19

Please fill in: protein stability index reported for LEECLRLLEATCPFGENAEFPADI [NFE2L1] = 3.61

Please fill in: protein stability index reported for ERQVLPDPEVLEAVGDRQDGLREQ [PBXIP1] = 5.64

Please fill in: protein stability index reported for TQHWPIRLDGQQEPQPFVTSDVYS [MYORG] = 3.46

* * *

assay: protein stability index of a GFP-peptide fusion (GPS, HEK-293T) (PSI 1-6); higher = more stable; conditions: treatment: DMSO; c terminus: a fixed tail appended
Catalogue of protein stability index values
Output spec: single numeric token, no unit.

Examples with answers:
LRIPFPRDCGEEMQNGAGASRTST [TNXB] = 4.02
DGVITASEDRTIRVWLKRDSGQYW [WDFY1] = 2.65
NKHLCYVFDSEKCVSIPDVVGWFV [GULP1] = 2.76
AAVVHHFESFPAGSTLIFYKYCDH [TOR1AIP2] = 2.37
NPIGHLPESLTKPDQVAPFTFLQP [ATF4] = 3.56
DDGSQDPEVLDRESRDRPSCAPSA [PWWP2B] = 5.43
KDHSCKDNIREAFQIYDKEASGYV [EFHC1] = 3.72
MSSHLVEPPPPLHNNNNNCEENEQ [BNIP3L] = 5.56

Please fill in: protein stability index reported for VNSDYETYMSADDLRINLWNFEIT [PPP2R2B] = 2.19

Please fill in: protein stability index reported for SFFAAQAGARKIYAVEASTMAQHA [CARM1] = 2.8

Please fill in: protein stability index reported for LDLSEEDSDDPSVTLELSQLSMLP [VDR] = 4.62

Please fill in: protein stability index reported for SVINNGHNQKVHMHMVDLMSSIIC [PDS5B] = 2.02

Please fill in: protein stability index reported for AAPAAKTRKQAAKKVAPLMAKAIR [ELOA2] = 3.78

Please fill in: protein stability index reported for TLLKKISEASKAFQMEKIEHGYEN [TRIM55] = 2.3

Please fill in: protein stability index reported for QELDIKKNERLWLLDDSKTWWRVR [NCK2] = 2.37

* * *

assay: protein stability index of a GFP-peptide fusion (GPS, HEK-293T) (PSI 1-6); higher = more stable; conditions: treatment: MLN4924 1 uM, 8 h; c terminus: a fixed tail appended
Endpoint name: protein stability index
Output spec: single numeric token, no unit.

Examples with answers:
ELQKIVQAGDKDLDGQLDFEEFVH [SLC25A25] = 4.19
EDEKQRLQNEVRQLTEKLARVNEN [SSNA1] = 5.17
PADIQAQFAISRELIRNIYNSFHK [SNX8] = 2.24

Please fill in: protein stability index reported for TILLSYGVILHSLKTQSLEGKRKA [OR4A15] = 2.41

Please fill in: protein stability index reported for VTQEPRAKKGRRNQSVEPKKEEPE [ZMYND11] = 5.6

* * *

Catalogue of protein stability index values
test: protein stability index of a GFP-peptide fusion (GPS, HEK-293T) (PSI 1-6); higher = more stable; details: treatment: MLN4924 1 uM, 8 h; c terminus: a fixed tail appended

Examples with answers:
MKVKVIPVLEDNYMYLVIEELTRE [HAGHL] = 2.95
IIKQIPVEQMTKEERQAAQNECQV [NEK8] = 4.75
VNSDYETYMSADDLRINLWNFEIT [PPP2R2B] = 2.4
MLSPQRVAAAASRGADDAMESSKP [ATL3] = 5.25
QCRHTLEQHNWNIEAAVQDRLNEQ [FAF2] = 3.87
IRVPSVPPVPCVPSVPCTPAPQVG [KRT36] = 3.57
VAVESMEPNNIVVLLQTSPYHVDS [TCF25] = 2.13
ADDHRYKFADNKWSVTGKAEPAMP [TBX5] = 4.2
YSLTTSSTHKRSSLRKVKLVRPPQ [RAB40B] = 3.63
FFFDRNPGAFGTILTFLRAGKLRL [KCNG1] = 2.07

Please fill in: protein stability index reported for ASVSDEELKRRVAEELALEQAKKE [CHCHD3] = 5.45

Please fill in: protein stability index reported for VCSQCGKVLEEGGFFEEKGAIFCP [PDLIM7] = 4.81

Please fill in: protein stability index reported for NKILQVFWEEHKASLGREESRAPS [CBY2] = 3.09

Please fill in: protein stability index reported for NMCMGRTSRGKLGGQDSFESIESY [ETS1] = 3.72

* * *

experiment: protein stability index of a GFP-peptide fusion (GPS, HEK-293T) (PSI 1-6); higher = more stable; conditions: treatment: MLN4924 1 uM, 8 h; c terminus: a fixed tail appended
Catalogue of protein stability index values
Output spec: single numeric token, no unit.

Examples with answers:
CGVILYILLVGYPPFWDEDQHRLY [CAMK2A] = 3.24
DERVLENVEHYQELKKMVQQSDLG [ALG2] = 4.8
RRQQAKLKELQAIAERLGCTLPQL [KCNAB2] = 3.19
MAAMETETAPLTLESLPTDPLLLI [FBXO3] = 3.43
NTFVRYLLKRIKKCCGMRNTDVSM [KCNK9] = 3

We next turn to a different sequence, shown below.
Please fill in: protein stability index reported for AKVKGEKLDKKLKKMEQNKTAATR [ATF4] = 4.85

* * *

assay: protein stability index of a GFP-peptide fusion (GPS, HEK-293T) (PSI 1-6); higher = more stable; conditions: treatment: MLN4924 1 uM, 8 h; c terminus: native
Endpoint name: protein stability index
Output spec: single numeric token, no unit.

VAQTGILWLLMNNCFLNLSPRKP [GAGE1] = 2.82

Please fill in: protein stability index reported for IRTANCTTANQNCVNKSKLLTDV [KCNA1] = 3.35

Please fill in: protein stability index reported for KREEEALEERRLSRGEIPTLQRS [PKD2L1] = 5.23

* * *

assay: protein stability index of a GFP-peptide fusion (GPS, HEK-293T) (PSI 1-6); higher = more stable; conditions: treatment: DMSO; c terminus: a fixed tail appended
Catalogue of protein stability index values
Output spec: single numeric token, no unit.

Examples with answers:
PVTKPLFPSAGQAQAAVQGPVGTD [ZNF207] = 5.15
ASRTWCFYNTEDIKDWEDRFYLLL [PTGFR] = 2.15
ILKHTPKEHPDVQLLEDAILIIQG [NET1] = 2.12
LEPSTPYRFLLYGLHEGKRLGPLS [TNXB] = 2.44

Please fill in: protein stability index reported for VCNINKGCGYGCQLHHVVYCFMIA [FUT8] = 2.89

Please fill in: protein stability index reported for AFCNGQKLQVSQQEDITKSLLVTE [IMPA1] = 3.69

Please fill in: protein stability index reported for QLEKPPEKEEDHAPEFIKVRENLR [FAM107A] = 5.29

Please fill in: protein stability index reported for STSYSPLASLPLKADTKGFCNISL [PLAGL1] = 2.38

Please fill in: protein stability index reported for KGVQQKRPSEAQSVILRRYFLELT [DENND6A] = 2.47

Please fill in: protein stability index reported for GQENDATSPHFSTRHEGSFQVPVL [CD69] = 3.68

Please fill in: protein stability index reported for YYHRGHVDPANDTFDIDPMVVTDC [MCOLN1] = 3.63

Please fill in: protein stability index reported for SEELLSLKYENDYPSVILRDPLQT [ETS1] = 4.05

Please fill in: protein stability index reported for ELSAIGSDTTPLPSWAALNSSTWG [SNX8] = 2.94

Please fill in: protein stability index reported for ILDICEDNVPDPKDVKERFSGSLV [TMEM175] = 3.83

Please fill in: protein stability index reported for RVIEVLPRGATAAVLAPDSSNASS [SEPHS2] = 4.31

Please fill in: protein stability index reported for ETGKLLWKVRYDTFIVSCKFSPDG [WDR88] = 2.55

Please fill in: protein stability index reported for MTDQQAEARSYLSEEMIAEFKAAF [TNNC2] = 4.22

Please fill in: protein stability index reported for QLHAKIDAAEEEKYDMEVRVQKTS [TNNI2] = 5.27

Please fill in: protein stability index reported for HKIKHKHILAKNYFSQVPVLASFI [IQUB] = 2.34

Please fill in: protein stability index reported for ATQSHSISSSSFGAEPSAPGGGGS [RTN3] = 5.19

Please fill in: protein stability index reported for SVNEVDFEGRTPMHVACQHGQENI [RIPK4] = 4.31

Please fill in: protein stability index reported for GAFQAQEKELVFDIDMTDYDDVRR [PRIM1] = 4.72

Please fill in: protein stability index reported for RERKKNWGGQEDREPAGRWKEGRP [PBXIP1] = 4.49

Please fill in: protein stability index reported for SEGACEKEKQSRDFQGRILSVDPE [RHOBTB1] = 5.22

Please fill in: protein stability index reported for AEREALQARLRDVSRREGALGWAP [ZBED3] = 4.04

Please fill in: protein stability index reported for GYSMNFNMSSSRGPLPVKRGPPPR [RBMX] = 3.16

Please fill in: protein stability index reported for LSVLQIAQQDLAPDPDAWLRALGE [FANCE] = 2.81

Please fill in: protein stability index reported for LEPMKSRAPQLHLEYRFYEQLGSG [CSNK1G3] = 2.91

Please fill in: protein stability index reported for VILAVSYMSQVLEKEMKAQEQRLG [GMPPB] = 2.27

Please fill in: protein stability index reported for MAAEIHSRPQSSRPVLLSKIEGHQ [WDFY1] = 3.84

Please fill in: protein stability index reported for CETTLFALRMATWNQILDPWVYIL [PTGFR] = 2.89

Please fill in: protein stability index reported for IERSSSFSSITDSTMSLNIITVTL [DVL3] = 2.8
